Data provenance is PubChem BioAssay.

Assay: basal RPMI8226 viability, no added stimulus, profiling panel, cell-based, calcein-AM fluorescence, 48 h, PK04 Diversity Set (AID 1166);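 further: cells grown under basal conditions without added stimulus; test concentration not given here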
Details: RPMI8226 myeloma viability, higher = more signal
Mark each entry true if its z-score sits below -0.1, and false for all others.

Below are worked cases with known answers.
# COMPOUND, QUALITATIVE LABEL
data = [
    ("CN1C(=O)C2CC=C(C3=CCO[C@@H]3[C@H]3CCCN3S(=O)(=O)c3ccccc3[N+](=O)[O-])CC2C1=O (some centres undefined)", "false"),
    ("C[C@]1(C(=O)NC2CC2)c2ccccc2C(=O)N(Cc2cc(F)cc(C(F)(F)F)c2)[C@H]1c1ccc(CO)cc1", "true"),
]

Strictly below -0.1 in z-score? COc1ccc([Si](C)(C)[C@@H]2[C@@H](CC(=O)N(CCO)Cc3ccccc3)O[C@]3(C(=O)N(Cc4cccc(I)c4)c4ccccc43)[C@H]2C)cc1 true

Next compound: CCCC=C(CCC)[C@@H](NC(=O)c1ccc(C(=O)OC)cc1)c1ccc(C(=O)OC)cc1 true

And what about the compound COc1cccc(C)c1NC(=O)O[C@H]1[C@H](OC(=O)Nc2ccccc2-c2ccccc2)[C@@H](OC(=O)Nc2ccccc2-c2ccccc2)[C@@H](OC)O[C@@H]1CO ? true

Input C=C(C(=O)CC[C@@H](OC(=O)c1ccccc1-c1ccccc1C(=O)O)c1ccc(OCCO)cc1)C(C)C true

And for C=CCOC(=O)[C@H]1[C@@H]2C(=O)O[C@@H](c3ccccc3)[C@@H](c3ccccc3)N2[C@@H](c2ccc(OCCOC(=O)[C@@H]3C[C@@H]4C(=O)N[C@@H](Cc5ccccc5)C(=O)N4[C@@H]3c3ccc(O)cc3)cc2)[C@]12C(=O)Nc1ccc(I)cc12 ? true

Follow-up entry: C=CCNC(=O)[C@H]1[C@@H]2C(=O)O[C@@H](c3ccccc3)[C@@H](c3ccccc3)N2[C@@H](c2ccc(O)cc2)[C@]12C(=O)N(C(=O)OCCOC)c1ccc(C#Cc3ccc(OC)cc3)cc12 true

Same read-out for Cc1ccc(S[C@]2(C(=O)NCc3ccccc3)CC(=O)N(Cc3ccccc3Cl)[C@@H]2c2ccc(CO)cc2)cc1 ? true

And the next one, CC(CO)N1C(=O)[C@@H]2[C@H]3C(=O)OCC=C[C@H]3OC23C=CCN(c2ccc4ccccc4c2)C(=O)[C@@H]13 (some centres undefined) ? true

Then CC1CC/C=C\[C@H]2OC34C=CCN(CCN5CCOCC5)C(=O)[C@H]3N(C(CO)C(C)C)C(=O)[C@@H]4C2C(=O)O1 (some centres undefined) ? false

Now give it for C=CC[C@]1(C(N)=O)N=C(c2ccc(OCCCO)cc2)O[C@H]1c1ccccc1N=[N+]=[N-] too. false

Next record, please: CO[C@H]1O[C@H](CO)[C@@H](OC(=O)CCc2ccccc2)[C@@H]2OC(=O)[C@@H](Cc3ccc4ccccc4c3)C/C=C/C[C@H](Cc3ccc4ccccc4c3)C(=O)O[C@@H]12 false

Now consider O=C1NC(=O)C2C1C=CC(C(O)C(O)CO)N2Nc1ccccn1 (centres undefined) . false
